System: LOX IMVI
Test: NCI tumour cell line growth inhibition, 48 h
Calls of active or inactive are those of the source. Rule as the data show it: active = GI50 up to about 1.1 µM and inactive = higher.
Reported GI50 is given for each of the following molecules.
Value Kind: GI50

c1ccc(NN/N=N/c2ccc(-c3nc4ccccc4[nH]3)cc2)cc1 = 15.2 µM (inactive)
Cc1ccc(C(O)c2cnc(C)n2Cc2ccccc2)cc1 (stereo not given) = > 100 µM (inactive)
COc1cc2c(cc1OC)C13CCN4C=C5CCOC6CC(=O)N2C1C6C5CC43 (stereo not given) = > 100 µM (inactive)
CCN(CC)CCOCCOCC1(c2ccc(Cl)c(Cl)c2)CCCCC1 = 7.08 µM (inactive)
CC(=O)Nn1c(Cc2ccc(Cl)cc2)nn(C)c1=O = > 100 µM (inactive)
O=C(O)CCC1(C(=O)O)CCC(=O)c2ccccc21 (stereo not given) = > 100 µM (inactive)
CC(=O)Oc1ccccc1C(=O)Nc1ncc([N+](=O)[O-])s1 [NITAZOXANIDE] = 21.8 µM (inactive)
CC1CCCC(C(=O)CC2CC(=O)NC(=O)C2)C1=O (stereo not given) = > 100 µM (inactive)
CCOC(=O)c1sc2nc(SC)nc3c2c1NCN3c1ccc2c(c1)OCCCO2 = > 100 µM (inactive)
C=CCSC1=N/C(=C\c2ccco2)C(=O)N1CC=C = 69.3 µM (inactive)
